- System: HepG2
- test-method-notes: Cytotoxicity against human HepG2 cells assessed as reduction in cell viability after 48 hrs by MTT assay
- Type: functional, cell-based
- applied-conditions: HepG2, 48 h
Threshold check on IC50: strictly below 80 µM is MET; on or above 80 µM is NOT MET.

molecule: O=C(/C=C/c1ccc(O)cc1)CC(=O)/C=C/c1ccc(O)cc1 [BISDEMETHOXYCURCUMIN]
label-value: MET

Is the reported IC50 for "O=C(/C=C/c1ccccc1O)CC(=O)/C=C/c1ccccc1O" strictly below 80 µM?
MET

Problem: For the molecule COc1cc(/C=C/C(=O)CC(=O)/C=C/c2ccc(O)c(OC)c2)ccc1O [CURCUMIN] , is IC50 under 80 µM?
MET

Report whether reported IC50 is lower than 80 µM (strictly) for "COc1ccccc1/C=C/C(=O)CC(=O)/C=C/c1ccccc1OC"
NOT MET

Does the reported IC50 of the following molecule sit strictly below 80 µM? "O=C(/C=C/c1cccc(O)c1)CC(=O)/C=C/c1cccc(O)c1"
MET

Please let me know if "O=C(/C=C/c1ccc(C(F)(F)F)cc1)CC(=O)/C=C/c1ccc(C(F)(F)F)cc1" shows IC50 below 80 µM.
NOT MET

State whether 80 µM exceeds IC50 recorded for "COc1cccc(/C=C/C(=O)CC(=O)/C=C/c2cccc(OC)c2)c1" .
NOT MET

Hi there! Is IC50 for "O=C(/C=C/c1ccccc1)CC(=O)/C=C/c1ccccc1" below 80 µM, do you know?
NOT MET

Lab note: confirm whether the reported IC50 for this molecule is below 80 µM, equality not counting. molecule: "O=C(/C=C/c1cccc(C(F)(F)F)c1)CC(=O)/C=C/c1cccc(C(F)(F)F)c1"
NOT MET

In plain terms, does "O=C(/C=C/c1ccccc1C(F)(F)F)CC(=O)/C=C/c1ccccc1C(F)(F)F" come in under 80 µM for IC50?
NOT MET

Field: below-cutoff. Rule: recorded IC50 strictly less than 80 µM. Subject: "COc1ccc(/C=C/C(=O)CC(=O)/C=C/c2ccc(OC)cc2)cc1"
NOT MET
